Target: NLK (Homo sapiens)
Sequence (Q9UBE8 whole entry): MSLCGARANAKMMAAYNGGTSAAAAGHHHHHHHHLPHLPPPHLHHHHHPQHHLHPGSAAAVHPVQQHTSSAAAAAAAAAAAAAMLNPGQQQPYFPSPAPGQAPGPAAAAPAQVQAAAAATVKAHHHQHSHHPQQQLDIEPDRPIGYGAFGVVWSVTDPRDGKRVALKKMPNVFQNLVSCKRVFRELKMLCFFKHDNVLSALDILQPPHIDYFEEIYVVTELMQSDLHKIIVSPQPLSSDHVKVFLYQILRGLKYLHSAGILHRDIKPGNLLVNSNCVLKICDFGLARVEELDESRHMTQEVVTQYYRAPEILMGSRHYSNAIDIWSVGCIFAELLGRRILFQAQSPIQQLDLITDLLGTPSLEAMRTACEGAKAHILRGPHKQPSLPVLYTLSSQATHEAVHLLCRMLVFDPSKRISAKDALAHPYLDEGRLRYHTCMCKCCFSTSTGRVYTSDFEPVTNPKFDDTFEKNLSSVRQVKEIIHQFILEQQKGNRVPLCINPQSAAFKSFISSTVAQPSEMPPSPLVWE
pIC50: −log10 of the molar value.
assay endpoint: pIC50

1) CN1CCN(c2ccc(Nc3ncc4cc(C#N)c(=O)n(C5CCCC5)c4n3)cc2)CC1 [Compound 12] : 7.34
